Values were extracted from paper PMC5476825.

Molecular target: T1, His6-Pex5c, C-terminal fragment (residues 295-612) of S. cerevisiae PEX5 (S. cerevisiae, UniProt P35056 295-612)
T1 construct: Pex5p (PEX5), PTS1 import receptor, S. cerevisiae, C-terminal fragment residues 295-612; Plasmid was a gift of Brooke M. Gardner; also called Pex5p C-terminal fragment; C-terminal truncation of Pex5p; not shown: His6, N-terminal, kept
T1 sequence (looked up): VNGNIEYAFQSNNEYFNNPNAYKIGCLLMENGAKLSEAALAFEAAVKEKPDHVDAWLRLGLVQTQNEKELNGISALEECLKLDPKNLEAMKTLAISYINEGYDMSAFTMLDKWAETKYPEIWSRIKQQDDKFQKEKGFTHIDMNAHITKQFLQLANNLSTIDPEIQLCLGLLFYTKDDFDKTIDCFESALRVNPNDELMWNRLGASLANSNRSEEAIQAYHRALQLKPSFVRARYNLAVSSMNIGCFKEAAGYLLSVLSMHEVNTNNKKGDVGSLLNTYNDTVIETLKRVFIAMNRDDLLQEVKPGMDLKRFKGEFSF
Test: fluorescence polarisation; competition: 375 nM Pex5c and 20 nM 5FAM-…, unlabelled … (4 mM to 3.8 nM) or … (0.5 mM to 0.47 nM) added; 50 mM HEPES pH 7.4, 100 mM NaCl, 0.05% Tween-20; equilibrated 16 h at 4 °C; fit with equation 17 of Roehrl et al.
Conditions: both partners purified
Could you please report measured pKd for the items listed next?
Hey, just a heads up that pKd is the negative log base 10 of the concentration in molar.

Request: So what's the measured pKd for this one? DELYKGSKL (peptide that results from fusion of the canonical PTS1 (SKL) to the C-terminus of YFP; source: synthetic peptide, bought: Elim Biopharmaceuticals Inc) [PTS1 peptide (DELYKGSKL)]
Result: 3.76

Request: So what's the measured pKd for this one? LGRGRRSKL (ePTS1: linker LGRGRR selected from a randomized six-residue linker library, followed by the canonical PTS1 SKL; also called enhanced PTS1; source: synthetic peptide, bought: Elim Biopharmaceuticals Inc) [ePTS1 peptide (LGRGRRSKL)]
Result: 6.10
